target: talin-1 R7–R8 fragment (residues 1355–1652) with mutation Y1389C (mouse, UniProt P26039 1355-1652, Y1389C); assay: FP
Sequence (P26039 1355-1652 Y1389C): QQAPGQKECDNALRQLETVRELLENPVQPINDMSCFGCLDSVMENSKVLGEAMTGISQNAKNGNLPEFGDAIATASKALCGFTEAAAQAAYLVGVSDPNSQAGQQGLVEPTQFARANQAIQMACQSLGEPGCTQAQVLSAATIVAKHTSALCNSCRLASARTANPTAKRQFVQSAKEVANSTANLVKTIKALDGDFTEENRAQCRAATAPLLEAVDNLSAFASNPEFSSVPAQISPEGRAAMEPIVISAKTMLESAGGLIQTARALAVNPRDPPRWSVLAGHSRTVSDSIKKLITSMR
pKd: −log10 of the molar value. No end group written: not given here.

# binder, pKd
records = [
    ("SEDIDQMFSTLLGEMDLLTQSLGVDTC (also: BODIPY or Fluorescein dye coupled via C-terminal Cys) [RIAM (4–30) peptide]", 5.44),
    ("PYFVETPYGFQLDLDFVKYVDDIQKGNTIKKLNIQKRRKC (BODIPY or Fluorescein dye coupled via the C-terminal cysteine residue) [KANK1 (30–68) peptide]", 6.46),
]
